meta.source: patent EP4803541A1

Assayed system: GH (GH stock solution) (UniProt P01241)
Sequence (P01241 27-217 limits assumed): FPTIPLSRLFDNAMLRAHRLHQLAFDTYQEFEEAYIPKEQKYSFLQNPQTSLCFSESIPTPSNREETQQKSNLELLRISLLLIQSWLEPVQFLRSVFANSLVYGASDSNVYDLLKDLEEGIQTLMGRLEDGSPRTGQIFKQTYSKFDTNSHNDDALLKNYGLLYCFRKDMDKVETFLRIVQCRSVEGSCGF
Assay protocol: affinity chromatography, VHH-conjugated medium loaded with GH stock solution; medium in 0.5M NaOH 0h
Measured parameter: dynamic binding capacity at 10% breakthrough

{"Binder": "M67 (Second round) (VHH, Entry already carries A15P; P105Q); tail DDDDK-SGGGGS-HHHHHH) VHH: QVQLVESGGGLAQPGGSLRLSCAVSGMPEFARAMGWFRQAPGKERELLAAIEGIGATTYYADSVKGRFTISRDDAANTVLLQMNSLKPDDTAVYYCAAAFSVTIPTRARHWVDWGQGTLVTVSS", "Measurement": 15.9}
{"Binder": "M74 (Second round) (VHH, Entry already carries A57D; G134R; R100eE); tail DDDDK-SGGRGS-HHHHHH) VHH: QVQLVESGGGLAQAGGSLRLSCAVSGMPEFARAMGWFRQAPGKERELLAAIEGIGDTTYYADSVKGRFTISRDDAANTVLLQMNSLKPDDTAVYYCAAAFSVTIPTRAEHWVDWGPGTLVTVSS", "Measurement": 14.7}
{"Binder": "M20 (First round) (VHH) VHH: QVQLVESGGGLAQAGGSLRLSCAVSGMPEFARAMGWFRQAPGKERELVAAIEGIGATTYYADSVKGRFTISRDDAANTVLLQMNSLKPDDTAVYYCAAAFSVTIPTRARHWVDWGPGTLVTVSS", "Measurement": 19.6}
{"Binder": "M45 (First round) (VHH) VHH: QVQLVESGGGLAQAGGSLRLSCAVSGMPEFARAMGWFRQAPGKERELLAAIEGIGATTYYADSVKGRFTISRDDAANTVLLQMNSLKPDDTAVYYCAAAFSVTIPTRARHWVDWGPGTLVTVSS", "Measurement": 18.2}
